Target: Hfq72 (Escherichia coli, UniProt P0A6X3 1-72)
Experiment: fluorescence anisotropy; first of two events; 1 g/l BSA; ITC/FA: 0.25 M NaCl, 20 mM Hepes/NaOH pH 8.0, 5 mM MgCl2, 2% glycerol, 25 C (FA plus 1 g/l BSA); EMSA: 0.25 M NaCl, 50 mM Tris pH 7.5, 10% glycerol, 25 C, 20 nM RNA, 2-200 nM Hfq
Conditions: protein: recombinant; tags: 6xHis-SUMO tag cleaved (SenP2); chain copies: 6; label: 3'-ATTO488
measured quantity: Kd (nM)
Numbers only, in nM.

Task: Requested read-out: Kd. Entry: AAAAAAAAAAAAAAAAAAAA (ssRNA) [A20-ATTO488]
Result: 0.4
